# TEST_DETAILS: qHTS assay to test for compound auto fluorescence at 535 nm (green) in HepG2 cell free culture (AID 720686)
# EXPERIMENTAL_CONTEXT: Cell-free medium, green autofluorescence 485/535 nm; series mostly up to 91.3 µM
Activity calls are given as the source filed them. The call rests on the fitted dose curve; in most records, active means well fitted curve in the direction sought with a large enough effect in the repeat runs; inconclusive means weak or mixed curves; inactive means flat fitted curve, though single readings scatter.
OBSERVATION_TYPE: fluorescence, % of fluorescein control

Take a look at these entries with their results.
compound=ClCCCCBr readout_value=inactive
compound=O=C1NCN(c2ccccc2)C12CCN(CCCOc1ccc(F)cc1)CC2 readout_value=inactive
compound=CCCCCCCCCCOC(=O)c1ccccc1C(=O)OCCCCCCCCCC readout_value=inactive
compound=O=[N+]([O-])c1ccccc1CCl readout_value=inactive
compound="COP(=S)(Oc1cc(Cl)c(Br)cc1Cl)c1ccccc1 (centres undefined)" readout_value=inactive

Exercise: Report fluorescence, % of fluorescein control for O=C(CCl)c1ccc(Cl)cc1Cl
Solution: inactive

Exercise: Report fluorescence, % of fluorescein control for O=C(NC(=O)c1c(F)cccc1F)Nc1ccc(OC(F)(F)C(F)OC(F)(F)F)c(Cl)c1 (centres undefined)
Solution: inactive

Exercise: Report fluorescence, % of fluorescein control for CCC(C)(NC(=O)c1cc(Cl)c(C)c(Cl)c1)C(=O)CCl (centres undefined)
Solution: inactive

Exercise: Report fluorescence, % of fluorescein control for CCCCCCC#N
Solution: inactive

Exercise: Report fluorescence, % of fluorescein control for CC(=O)CCC(C)=O
Solution: inactive

Exercise: Report fluorescence, % of fluorescein control for CCC(Cl)CCl (centres undefined)
Solution: inactive

Exercise: Report fluorescence, % of fluorescein control for CN(C)c1ccc(N(C)C)cc1
Solution: inactive

Exercise: Report fluorescence, % of fluorescein control for O=[N+]([O-])c1cc(C(F)(F)F)cc([N+](=O)[O-])c1Cl
Solution: inactive

Exercise: Report fluorescence, % of fluorescein control for CNP(=O)(OC)Oc1ccc(C(C)(C)C)cc1Cl (centres undefined)
Solution: inactive

* * *

# TEST_DETAILS: qHTS assay to identify small molecule antagonists of the estrogen related receptor (ERR) signaling pathway from Tox21 library (AID 1224848); further: nearly all actives have a fitted effect of over 50% in size
# EXPERIMENTAL_CONTEXT: ERR reporter cell line, luciferase antagonist mode, 18 h; series mostly up to 92.4 µM
Inconclusive results are not listed. The source made the active and inactive calls. Calls come from the whole dose curve; as a rule, active = well fitted inhibition curve with a large enough effect in the repeat runs; inconclusive = weak or mixed curves; inactive = no such curve, though single readings can be large or run the other way.
Classes to choose from: active, inactive

Exercise: What call does the record list for O=C(CBr)Nc1ccc(Cl)cc1C(=O)c1ccccc1F ?
Solution: inactive

Exercise: What call does the record list for c1cc2ccc3cccc4ccc(c1)c2c34 ?
Solution: active

Exercise: What call does the record list for O=C(O)COc1ccc(Cl)cc1 ?
Solution: inactive

Exercise: What call does the record list for CC(C)(OO)c1ccccc1 ?
Solution: inactive

Exercise: What call does the record list for CCc1ccc(C(=O)NN(C(=O)c2cc(C)cc(C)c2)C(C)(C)C)cc1 ?
Solution: active

Exercise: What call does the record list for CCCCc1c(C)nc(NCC)nc1OS(=O)(=O)N(C)C ?
Solution: active

Exercise: What call does the record list for O=C(O)C(F)(F)C(F)(F)C(F)(F)C(F)(F)C(F)(F)C(F)(F)C(F)(F)C(F)(F)C(F)(F)C(F)(F)F ?
Solution: inactive

* * *

# TEST_DETAILS: qHTS assay to identify small molecule antagonists of the sonic hedgehog signaling (Shh) pathway (AID 1259369); further: nearly all actives have a fitted effect of over 45% in size
# EXPERIMENTAL_CONTEXT: NIH/3T3 Gli1-Luc reporter, Shh antagonist, luminescence 24 h; series mostly up to 92.4 µM
# Excerpt: U.S. Tox21 Program National Center for Advancing Translational Sciences [NCATS] NIH Chemical Genomics Center [NCGC] U.S. Environmental Protection Agency [EPA] National Institutes of Environmental Health Sciences [NIEHS] National Toxicology Program [NTP] U.S. Food and Drug Administration [FDA] Tox21 Assay Overview: The sonic hedgehog (Shh) pathway is essential for normal embryonic development. Dysregulation of the Shh pathway can cause severe developmental defects in organs. […]
Inconclusive results are not listed. Calls of active or inactive are those of the source. The call rests on the fitted dose curve.
Classes to choose from: active, inactive

Exercise: What call does the record list for C[C@@H]1CC[C@H]2[C@@H](C)C(=O)O[C@@H]3O[C@@]4(C)CC[C@@H]1[C@]32OO4 ?
Solution: inactive

Exercise: What call does the record list for O=C(CBr)c1ccccc1 ?
Solution: active

Exercise: What call does the record list for c1ccc(CN2CCNCC2)cc1 ?
Solution: inactive

Exercise: What call does the record list for C[C@]12CC[C@H]3[C@@H](CCC4=CC(=O)CC[C@@H]43)[C@@H]1CC[C@@H]2OC(=O)CCC1CCCCC1 ?
Solution: inactive

Exercise: What call does the record list for CC(=O)C(C)(C)C ?
Solution: inactive

Exercise: What call does the record list for CO/N=C(/C(=O)OC)c1ccccc1COc1ccccc1C ?
Solution: active

Exercise: What call does the record list for CCO[C@H]1O[C@@H]2OC3(C)CC[C@H]4[C@H](C)CC[C@@H]([C@H]1C)[C@@]24OO3 ?
Solution: inactive

Exercise: What call does the record list for COP(=S)(Oc1cc(Cl)c(Br)cc1Cl)c1ccccc1 (stereo unspecified) ?
Solution: inactive

Exercise: What call does the record list for ClCc1cccc(Cl)c1 ?
Solution: inactive

Exercise: What call does the record list for O=C(O)C(F)(F)C(F)(F)C(F)(F)C(F)(F)C(F)(F)C(F)(F)C(F)(F)C(F)(F)C(F)(F)C(F)(F)F ?
Solution: inactive

Exercise: What call does the record list for CC1Sc2c(C(=O)O)c(=O)c3cc(F)c(N4CCNCC4)cc3n21 (stereo unspecified) ?
Solution: inactive

* * *

# TESTED_TARGET: Estrogen receptor (Homo sapiens) (UniProt P03372)
# Sequence (P03372 whole entry, looked up): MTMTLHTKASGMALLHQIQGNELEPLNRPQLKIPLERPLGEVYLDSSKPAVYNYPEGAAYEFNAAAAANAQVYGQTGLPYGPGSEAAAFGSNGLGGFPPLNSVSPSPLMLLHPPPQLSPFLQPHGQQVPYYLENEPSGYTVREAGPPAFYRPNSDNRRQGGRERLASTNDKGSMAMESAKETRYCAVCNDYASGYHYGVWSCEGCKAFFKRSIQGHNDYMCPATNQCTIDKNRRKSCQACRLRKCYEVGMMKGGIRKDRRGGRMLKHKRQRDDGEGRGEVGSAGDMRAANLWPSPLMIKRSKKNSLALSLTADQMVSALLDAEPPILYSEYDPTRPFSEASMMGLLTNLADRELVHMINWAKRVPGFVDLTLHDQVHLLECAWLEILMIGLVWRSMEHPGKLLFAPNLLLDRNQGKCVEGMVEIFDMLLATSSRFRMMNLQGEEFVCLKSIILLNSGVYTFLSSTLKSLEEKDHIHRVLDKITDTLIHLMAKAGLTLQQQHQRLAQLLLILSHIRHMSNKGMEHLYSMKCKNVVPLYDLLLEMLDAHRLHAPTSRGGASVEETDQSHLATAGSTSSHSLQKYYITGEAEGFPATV
# TEST_DETAILS: qHTS assay to identify small molecule antagonists of the estrogen receptor alpha (ER-alpha) signaling pathway using the BG1 cell line in the presence of 0.1 nM 17-beta-estradiol (AID 1259244); further: nearly all actives have a fitted effect of over 50% in size
# EXPERIMENTAL_CONTEXT: VM7Luc4E2 (BG1) ERE-luciferase, antagonist mode, 0.1 nM E2, 22 h; series mostly up to 92.4 µM
Records with an inconclusive call do not appear. Activity calls are given as the source filed them. Calls come from the whole dose curve; as a rule, active = well fitted inhibition curve with a large enough effect in the repeat runs; inconclusive = weak or mixed curves; inactive = no such curve, though single readings can be large or run the other way.
Classes to choose from: active, inactive

Exercise: What call does the record list for O=C1NCN(c2ccccc2)C12CCN(CCCOc1ccc(F)cc1)CC2 ?
Solution: active

Exercise: What call does the record list for CC(=O)C(C)(C)C ?
Solution: inactive

Exercise: What call does the record list for O=S1(=O)OC(c2cc(Br)c(O)c(Br)c2)(c2cc(Br)c(O)c(Br)c2)c2ccccc21 ?
Solution: active

Exercise: What call does the record list for CC1Sc2c(C(=O)O)c(=O)c3cc(F)c(N4CCNCC4)cc3n21 (stereo not drawn) ?
Solution: inactive

Exercise: What call does the record list for CC(C)=CCOc1c2occc2cc2ccc(=O)oc12 ?
Solution: inactive

Exercise: What call does the record list for COc1nn(CSP(=S)(OC)OC)c(=O)s1 ?
Solution: inactive

Exercise: What call does the record list for COc1cc(CC(C)N)cc2c1OCO2 (stereo not drawn) ?
Solution: inactive

Exercise: What call does the record list for CC(=O)CCC(C)=O ?
Solution: inactive

Exercise: What call does the record list for O=C(OC1CCCCC1)c1ccccc1C(=O)OC1CCCCC1 ?
Solution: inactive

Exercise: What call does the record list for COc1cc(Cl)c(OC)cc1Cl ?
Solution: inactive

Exercise: What call does the record list for O=C1C(=O)c2cccc3cccc1c23 ?
Solution: active

Exercise: What call does the record list for Clc1cc(Cl)c(Cl)c(Cl)c1 ?
Solution: inactive

Exercise: What call does the record list for CN1[C@@H]2CC[C@H]1CC(OC(=O)c1cc(Cl)cc(Cl)c1)C2 (stereo partly drawn) ?
Solution: inactive

Exercise: What call does the record list for Brc1ccccc1 ?
Solution: inactive

Exercise: What call does the record list for COCC(C)N(C(=O)CCl)c1c(C)csc1C (stereo not drawn) ?
Solution: inactive

Exercise: What call does the record list for O=C(C(Cl)(Cl)Cl)C(Cl)(Cl)Cl ?
Solution: inactive

Exercise: What call does the record list for Nc1nc(=S)[nH][nH]1 ?
Solution: inactive

Exercise: What call does the record list for CS/C(C)=N/OC(=O)N(C)SN(C)C(=O)O/N=C(\C)SC ?
Solution: inactive

Exercise: What call does the record list for COC(=O)C(C)N(C(=O)Cc1ccccc1)c1c(C)cccc1C (stereo not drawn) ?
Solution: inactive

Exercise: What call does the record list for N#CCc1ccccc1 ?
Solution: inactive

Exercise: What call does the record list for COP(=O)(OC)O/C(=C/Cl)c1cc(Cl)c(Cl)cc1Cl ?
Solution: active

Exercise: What call does the record list for CCOP(=O)(OCC)SCCSCC ?
Solution: inactive

Exercise: What call does the record list for Cc1ccccc1C(=O)Nc1cccc(OC(C)C)c1 ?
Solution: inactive

Exercise: What call does the record list for COCCOCCO ?
Solution: inactive

Exercise: What call does the record list for CCOP(=S)(OCC)SCSCC ?
Solution: inactive

Exercise: What call does the record list for O=C(NC(=O)c1c(F)cccc1F)Nc1cc(Cl)c(Oc2ncc(C(F)(F)F)cc2Cl)c(Cl)c1 ?
Solution: active

Exercise: What call does the record list for CCC(C)(NC(=O)c1cc(Cl)c(C)c(Cl)c1)C(=O)CCl (stereo not drawn) ?
Solution: inactive

Exercise: What call does the record list for CCOC(=O)C(Cl)C(C)=O (stereo not drawn) ?
Solution: inactive
